Measured values drawn from patent US10526388B2 for this set.

biological target: HLA-A*02:06 molecule (Homo sapiens, UniProt P04439, D140Y/D185E/D98H/E176V/E277Q/F33Y/G131W/G231S/I119V/I121R/I166T/I218V/L300P/L318F/N151K/N90K/P208A/P217A/Q86G/Q94H/R138H/R169H/T345S); construct: expressed in transfected cells; host or cells: RA2.6 cells (RMAS mouse TAP-deficient line carrying HLA-A*02:06 cDNA; prepared at Kochi University); assay: Binding experiment of peptide to HLA-A*02:06 molecule (RA2.6 cells, antibody BB7.2, flow cytometer); details: RA2.6 cells, 26° C. 60 minutes then 35° C. 4 hours; negative figures given (log of Kd value)
pKd: −log10 of the molar value. Ends that are not written are not given here.
Entries annotated with measured pKd
endpointLabel: pKd

>>> df
                        polymersequence  endpointlabel  recordednumber
0  GMIKVKNQL [SEQ ID NO: 10, GMIKVKNQL]            pKd            3.36
1  ARLNMEQLL [SEQ ID NO: 11, ARLNMEQLL]            pKd            2.76
2   ALNLGIEVI [SEQ ID NO: 7, ALNLGIEVI]            pKd            4.16
3   SALDINECL [SEQ ID NO: 3, SALDINECL]            pKd            6.32
4   SLQVTRIFL [SEQ ID NO: 4, SLQVTRIFL]            pKd            5.21

* * *

biological target: HLA-A*02:06 molecule (Homo sapiens, UniProt P04439, D140Y/D185E/D98H/E176V/E277Q/F33Y/G131W/G231S/I119V/I121R/I166T/I218V/L300P/L318F/N151K/N90K/P208A/P217A/Q86G/Q94H/R138H/R169H/T345S); construct: expressed in transfected cells; host or cells: RA2.6 cells (RMAS mouse TAP-deficient line carrying HLA-A*02:06 cDNA; prepared at Kochi University); assay: Binding experiment of peptide to HLA-A*02:06 molecule (RA2.6 cells, antibody BB7.2, flow cytometer); conditions: RA2.6 cells, 26° C. 60 minutes then 35° C. 4 hours; negative figures given (log of Kd value)
Ends that are not written are not given here.
endpointLabel: Kd (µM)

                       polymersequence  endpointlabel  readoutunit  qualifyingsign  recordednumber
0  LLQSASMEL [SEQ ID NO: 8, LLQSASMEL]             Kd           µM               =            1.33
1  LFDSLFPVI [SEQ ID NO: 2, LFDSLFPVI]             Kd           µM               >            1000
2  SLTPQAFEF [SEQ ID NO: 5, SLTPQAFEF]             Kd           µM               =            30.5
3  GYICSHSPV [SEQ ID NO: 6, GYICSHSPV]             Kd           µM               >            1000
4  KLTTTIGKL [SEQ ID NO: 9, KLTTTIGKL]             Kd           µM               =            9.25
5  MVNELFDSL [SEQ ID NO: 1, MVNELFDSL]             Kd           µM               =           0.724
